assay: Displacement of [3H]methyllycaconitine from chimeric alpha-7nAChR Y168A mutant/5HT3A receptor in tsA201 cells; format: cell-based, Homo sapiens
pKi listing for selected molecules.
PROPERTY_LABEL: pKi

* CCN1C[C@]2(COC(=O)c3ccccc3N3C(=O)C[C@H](C)C3=O)CC[C@H](OC)[C@@]34[C@@H]5C[C@H]6[C@H](OC)[C@@H]5[C@](O)(C[C@@H]6OC)[C@](O)([C@@H](OC)[C@H]23)[C@@H]14 | 8.71
* C[N+](C)(C)Cc1c2n(c3ccccc13)Cc1c(C[N+](C)(C)C)c3ccccc3n1C2.[I-].[I-] | 5.29
* O=[N+]([O-])c1ccc(C[N+]23CC[C@@H]4[C@@H]5[C@@H]6[C@@H](OCC=C(C2)[C@@H]6C[C@@H]43)N2c3ccccc3[C@@]34CC[N+]6(Cc7ccc([N+](=O)[O-])cc7)CC7=CCO[C@H]([C@@H]([C@H]23)[C@H]7C[C@@H]46)N5c2ccccc2)cc1.[Br-].[Br-] (stereo partly specified) | 7.47
* C[N+]12CC[C@@H]3[C@@H]4/C(=C\N5c6ccccc6[C@@]67CC[N+]8(C)CC9=CCO[C@H]([C@@H]([C@H]56)[C@H]9C[C@@H]78)N4c4ccccc4)[C@@H](C[C@@H]31)/C(=C\CO)C2.[I-].[I-] (stereo partly specified) | 5.89
* C[N+]12CC[C@@H]3[C@@H]4[C@@H]5[C@@H](OCC=C(C1)[C@@H]5C[C@@H]32)N1c2ccccc2[C@@]23CC[N+]5(C)CC6=CCO[C@H]([C@@H]([C@H]12)[C@H]6C[C@@H]35)N4c1ccccc1.[I-].[I-] (stereo partly specified) | 6.51
* C1=CC([N+]23CC[C@@H]4[C@@H]5[C@@H]6[C@@H](OCC=C(C2)[C@@H]6C[C@@H]43)N2c3ccccc3[C@@]34CC[N+]6(C7C=CCCC7)CC7=CCO[C@H]([C@@H]([C@H]23)[C@H]7C[C@@H]46)N5c2ccccc2)CCC1.[Br-].[Br-] (stereo partly specified) | 5.96

---

IC50 listing for selected compounds.
molecular target: Glycine receptor subunit alpha-1 (Homo sapiens, UniProt P23415); test: Antagonist activity at human glycine alpha-1 receptor in HEK293 cells by FMP assay
Sequence (P23415 whole entry): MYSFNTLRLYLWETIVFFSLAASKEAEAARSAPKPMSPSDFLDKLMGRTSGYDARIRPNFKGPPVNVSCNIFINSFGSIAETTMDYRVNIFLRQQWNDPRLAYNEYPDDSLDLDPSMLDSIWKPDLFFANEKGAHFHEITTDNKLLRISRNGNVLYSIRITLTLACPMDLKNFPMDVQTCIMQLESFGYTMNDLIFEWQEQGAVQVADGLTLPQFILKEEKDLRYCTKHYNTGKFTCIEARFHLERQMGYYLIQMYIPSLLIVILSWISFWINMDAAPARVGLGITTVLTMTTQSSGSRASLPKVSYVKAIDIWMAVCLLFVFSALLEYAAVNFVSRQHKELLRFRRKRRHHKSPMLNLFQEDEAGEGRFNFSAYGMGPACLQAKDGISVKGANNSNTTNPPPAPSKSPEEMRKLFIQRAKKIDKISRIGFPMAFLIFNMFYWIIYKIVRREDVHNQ
PROPERTY_LABEL: IC50

- OC/C=C1/C[N+]2(C3C=CCCC3)CC[C@@H]3[C@@H]4/C(=C\N5c6ccccc6[C@@]67CC[N+]8(C9C=CCCC9)CC9=CCO[C@H]([C@@H]([C@H]56)[C@H]9C[C@@H]78)N4c4ccccc4)[C@H]1C[C@@H]32.[Br-].[Br-] (some centres not stated): > 100 µM
- Brc1ccc(C[N+]23CC[C@@H]4[C@@H]5[C@@H]6[C@@H](OCC=C(C2)[C@@H]6C[C@@H]43)N2c3ccccc3[C@@]34CC[N+]6(Cc7ccc(Br)cc7)CC7=CCO[C@H]([C@@H]([C@H]23)[C@H]7C[C@@H]46)N5c2ccccc2)cc1.[Br-].[Br-] (some centres not stated): > 100 µM
- O=[N+]([O-])c1ccc(C[N+]23CCC4[C@@H]5/C(=C\N6c7ccccc7[C@@]78CC[N+]9(Cc%10ccc([N+](=O)[O-])cc%10)CC%10=CCO[C@H]([C@@H]([C@H]67)[C@H]%10C[C@@H]89)N5c5ccccc5)[C@@H](C[C@@H]42)/C(=C\CO)C3)cc1.[Br-].[Br-] (some centres not stated): > 100 µM
- C=CC[N+](C)(C)Cc1c2n(c3ccccc13)Cc1c(C[N+](C)(C)CC=C)c3ccccc3n1C2.[Br-].[Br-]: > 100 µM
- COc1ccc(C[N+]23CC[C@@H]4[C@@H]5[C@@H]6[C@@H](OCC=C(C2)[C@@H]6C[C@@H]43)N2c3ccccc3[C@@]34CC[N+]6(Cc7ccc(OC)c(OC)c7)CC7=CCO[C@H]([C@@H]([C@H]23)[C@H]7C[C@@H]46)N5c2ccccc2)cc1OC.[Cl-].[Cl-] (some centres not stated): > 100 µM
- CC(=O)OCC[N+]12CC[C@@H]3[C@@H]4[C@@H]5[C@@H](OCC=C(C1)[C@@H]5C[C@@H]32)N1c2ccccc2[C@@]23CC[N+]5(CCOC(C)=O)CC6=CCO[C@H]([C@@H]([C@H]12)[C@H]6C[C@@H]35)N4c1ccccc1.[Br-].[Br-] (some centres not stated): > 100 µM
- C[N+]12CC[C@@H]3[C@@H]4/C(=C\N5c6ccccc6[C@@]67CC[N+]8(C)CC9=CCO[C@H]([C@@H]([C@H]56)[C@H]9C[C@@H]78)N4c4ccccc4)[C@@H](C[C@@H]31)/C(=C\CO)C2.[I-].[I-] (some centres not stated): > 100 µM

---

molecular target: Neuronal acetylcholine receptor subunit alpha-7 (Homo sapiens); test: Displacement of [3H]methyllycaconitine from alpha7 nAChR in tsA201 cells co-expressed with Ric3; format: cell-based; details: read-out: Ki
Ki listing for selected molecules.
PROPERTY_LABEL: Ki

• C1=C2C[N+]3(Cc4ccc5ccccc5c4)CC[C@@H]4[C@@H]5[C@H]([C@@H](OC1)N1c6ccccc6[C@@]67CC[N+]8(Cc9ccc%10ccccc%10c9)CC9=CCO[C@H]([C@@H]([C@H]16)[C@H]9C[C@@H]78)N5c1ccccc1)[C@H]2C[C@@H]43 (some centres undefined) = 710 nM
• CCN1C[C@]2(COC(=O)c3ccccc3N3C(=O)C[C@H](C)C3=O)CC[C@H](OC)[C@@]34[C@@H]5C[C@H]6[C@H](OC)[C@@H]5[C@](O)(C[C@@H]6OC)[C@](O)([C@@H](OC)[C@H]23)[C@@H]14 [METHYLLYCACONITINE] = 6.1 nM
• C1=C2CN3CC[C@@H]4[C@@H]5[C@H]([C@@H](OC1)N1c6ccccc6[C@@]67CCN8CC9=CCO[C@H]([C@@H]([C@H]16)[C@H]9C[C@H]87)N5c1ccccc1)[C@H]2C[C@@H]43 = 1100 nM
• C[N+](C)(Cc1ccc([N+](=O)[O-])cc1)Cc1c2n(c3ccccc13)Cc1c(C[N+](C)(C)Cc3ccc([N+](=O)[O-])cc3)c3ccccc3n1C2.[Br-].[Br-] = 3900 nM
• CN(C)Cc1c2n(c3ccccc13)Cc1c(CN(C)C)c3ccccc3n1C2 = 5400 nM
• C=CC[N+]12CC[C@@H]3[C@@H]4[C@@H]5[C@@H](OCC=C(C1)[C@@H]5C[C@@H]32)N1c2ccccc2[C@@]23CCN5CC6=CCO[C@H]([C@@H]([C@H]12)[C@H]6C[C@H]53)N4c1ccccc1.[Br-] (some centres undefined) = 55 nM
• C/C=C/C[N+]12CC[C@@H]3[C@@H]4[C@@H]5[C@@H](OCC=C(C1)[C@@H]5C[C@@H]32)N1c2ccccc2[C@@]23CC[N+]5(C/C=C/C)CC6=CCO[C@H]([C@@H]([C@H]12)[C@H]6C[C@@H]35)N4c1ccccc1.[Br-].[Br-] (some centres undefined) = 100 nM
• CC(=O)OCC[N+]12CC[C@@H]3[C@@H]4[C@@H]5[C@@H](OCC=C(C1)[C@@H]5C[C@@H]32)N1c2ccccc2[C@@]23CC[N+]5(CCOC(C)=O)CC6=CCO[C@H]([C@@H]([C@H]12)[C@H]6C[C@@H]35)N4c1ccccc1.[Br-].[Br-] (some centres undefined) = 310 nM
• Brc1ccc(C[N+]23CC[C@@H]4[C@@H]5[C@@H]6[C@@H](OCC=C(C2)[C@@H]6C[C@@H]43)N2c3ccccc3[C@@]34CC[N+]6(Cc7ccc(Br)cc7)CC7=CCO[C@H]([C@@H]([C@H]23)[C@H]7C[C@@H]46)N5c2ccccc2)cc1.[Br-].[Br-] (some centres undefined) = 640 nM

---

biological target: Neuronal acetylcholine receptor subunit alpha-7 (Homo sapiens, UniProt P36544); assay: Displacement of [3H]methyllycaconitine from alpha7 nAChR in tsA201 cells co-expressed with Ric3; assay type: cell-based; details: read-out: pKi (converted)
Sequence (P36544 whole entry): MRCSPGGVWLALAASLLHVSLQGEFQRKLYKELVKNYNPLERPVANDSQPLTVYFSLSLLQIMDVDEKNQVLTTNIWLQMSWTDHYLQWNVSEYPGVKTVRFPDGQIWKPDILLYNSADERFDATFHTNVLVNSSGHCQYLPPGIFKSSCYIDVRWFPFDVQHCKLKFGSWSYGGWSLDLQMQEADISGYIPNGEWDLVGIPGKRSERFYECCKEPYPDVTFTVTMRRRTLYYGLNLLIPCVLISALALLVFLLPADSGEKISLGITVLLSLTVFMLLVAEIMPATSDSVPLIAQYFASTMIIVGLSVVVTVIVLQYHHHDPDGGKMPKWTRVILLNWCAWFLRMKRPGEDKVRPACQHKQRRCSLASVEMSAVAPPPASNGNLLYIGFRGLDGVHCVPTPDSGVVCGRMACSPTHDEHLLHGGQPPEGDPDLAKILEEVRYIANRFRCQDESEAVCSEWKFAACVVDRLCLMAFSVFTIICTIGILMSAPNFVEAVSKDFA
PROPERTY_LABEL: Ki (µM)

* C1=C2C[N+]3(Cc4ccc5ccccc5c4)CC[C@@H]4[C@@H]5[C@H]([C@@H](OC1)N1c6ccccc6[C@@]67CC[N+]8(Cc9ccc%10ccccc%10c9)CC9=CCO[C@H]([C@@H]([C@H]16)[C@H]9C[C@@H]78)N5c1ccccc1)[C@H]2C[C@@H]43 (some centres not stated) | 0.631
* C[N+]12CC[C@@H]3[C@@H]4[C@@H]5[C@@H](OCC=C(C1)[C@@H]5C[C@@H]32)N1c2ccccc2[C@@]23CC[N+]5(C)CC6=CCO[C@H]([C@@H]([C@H]12)[C@H]6C[C@@H]35)N4c1ccccc1.[I-].[I-] (some centres not stated) | 0.2

---

target: Neuronal acetylcholine receptor subunit alpha-7 (Homo sapiens); test: Displacement of [3H]methyllycaconitine from human alpha-7 in tsA201 cells coexpressed with 5HT3A receptor; format: cell-based; settings: read-out: Ki
PROPERTY_LABEL: Ki (nM)

• C1=C2C[N+]3(Cc4ccccc4)CC[C@@H]4[C@@H]5[C@H]([C@@H](OC1)N1c6ccccc6[C@@]67CC[N+]8(Cc9ccccc9)CC9=CCO[C@H]([C@@H]([C@H]16)[C@H]9C[C@@H]78)N5c1ccccc1)[C@H]2C[C@@H]43.[Br-].[Br-] (some centres undefined) = 200
• C=CC[N+]12CC[C@@H]3[C@@H]4[C@@H]5[C@@H](OCC=C(C1)[C@@H]5C[C@@H]32)N1c2ccccc2[C@@]23CC[N+]5(CC=C)CC6=CCO[C@H]([C@@H]([C@H]12)[C@H]6C[C@@H]35)N4c1ccccc1.[Br-].[Br-] (some centres undefined) = 66
• Brc1ccc(C[N+]23CC[C@@H]4[C@@H]5[C@@H]6[C@@H](OCC=C(C2)[C@@H]6C[C@@H]43)N2c3ccccc3[C@@]34CC[N+]6(Cc7ccc(Br)cc7)CC7=CCO[C@H]([C@@H]([C@H]23)[C@H]7C[C@@H]46)N5c2ccccc2)cc1.[Br-].[Br-] (some centres undefined) = 260
• CCN1C[C@]2(COC(=O)c3ccccc3N3C(=O)C[C@H](C)C3=O)CC[C@H](OC)[C@@]34[C@@H]5C[C@H]6[C@H](OC)[C@@H]5[C@](O)(C[C@@H]6OC)[C@](O)([C@@H](OC)[C@H]23)[C@@H]14 = 1.1
